# System: 677734-321-R-J1-PDC complex spheroid viability
# assay-overview: Anticancer human tumor 677734-321-R-J1-PDC patient-derived soft tissue sarcoma cell line growth inhibition [POLQ]
# assay-context: second compound 10 µM; first compound 0.316 µM; active compounds read low
Assign labels as follows, please: label 1 for viability, T/C below 70%; label 0 for viability, T/C equal to or exceeding 70%.

compound | classification
C=CCn1c(=O)c2cnc(Nc3ccc(N4CCN(C)CC4)cc3)nc2n1-c1cccc(C(C)(C)O)n1 + COC1C(OC(N)=O)C(O)C(Oc2ccc3c(O)c(NC(=O)c4ccc(O)c(CC=C(C)C)c4)c(=O)oc3c2C)OC1(C)C | label 0
O=c1[nH]cc(F)c(=O)[nH]1 + COC1C(OC(N)=O)C(O)C(Oc2ccc3c(O)c(NC(=O)c4ccc(O)c(CC=C(C)C)c4)c(=O)oc3c2C)OC1(C)C | label 0
COc1cc(C2c3cc4c(cc3C(OC3OC5COC(C)OC5C(O)C3O)C3COC(=O)C23)OCO4)cc(OC)c1O (stereo not given) + COC1C(OC(N)=O)C(O)C(Oc2ccc3c(O)c(NC(=O)c4ccc(O)c(CC=C(C)C)c4)c(=O)oc3c2C)OC1(C)C | label 1
O=C(c1cc(Cc2n[nH]c(=O)c3ccccc23)ccc1F)N1CCN(C(=O)C2CC2)CC1 + Nc1ccc(C#CCN(C(=O)Cc2ncc(C(F)(F)F)cc2C(F)(F)F)c2ccc(F)cc2)nn1 | label 0

----------
Parameter viability, T/C: see the listing below.
# Tested on: 677734-321-R-J1-PDC complex spheroid viability
# assay-overview: Anticancer human tumor 677734-321-R-J1-PDC cell line growth inhibition [POLQ];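 also: spheroids exposed to compounds for one week; 100% = vehicle DMSO treated spheroids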
# assay-context: second compound 0.1 µM; first compound 1 µM; active compounds read low
measurement-kind: viability, T/C (%)

compound | recorded-value
CCc1c2c(nc3ccc(O)cc13)-c1cc3c(c(=O)n1C2)COC(=O)[C@]3(O)CC + Nc1ccc(C#CCN(C(=O)Cc2ncc(C(F)(F)F)cc2C(F)(F)F)c2ccc(F)cc2)nn1 | 1.25
O=C(c1cc(Cc2n[nH]c(=O)c3ccccc23)ccc1F)N1CCN(C(=O)C2CC2)CC1 + Cc1cccc(N(C)C(=O)C2C(O)CCN2c2nc(C)cc(C(F)(F)F)c2C#N)c1 | 99.3
CC1COCCN1c1cc(C2(S(C)(=N)=O)CC2)nc(-c2ccnc3[nH]ccc23)n1 (stereo not given) + Cc1cccc(N(C)C(=O)C2C(O)CCN2c2nc(C)cc(C(F)(F)F)c2C#N)c1 | 92.9
CC1COCCN1c1cc(C2(O)CC3CCC(C2)O3)c2cnn(-c3ccn[nH]3)c2n1 (stereo not given) + Nc1ccc(C#CCN(C(=O)Cc2ncc(C(F)(F)F)cc2C(F)(F)F)c2ccc(F)cc2)nn1 | 7.88
CCc1c2c(nc3ccc(O)cc13)-c1cc3c(c(=O)n1C2)COC(=O)[C@]3(O)CC + COC1C(OC(N)=O)C(O)C(Oc2ccc3c(O)c(NC(=O)c4ccc(O)c(CC=C(C)C)c4)c(=O)oc3c2C)OC1(C)C | 1.2
COc1ccc([C@@H](O)c2cc(-c3ncnc4cc(N5CCOCC5)ccc34)c(F)cc2Cl)nn1 + Cc1cccc(N(C)C(=O)C2C(O)CCN2c2nc(C)cc(C(F)(F)F)c2C#N)c1 | 92.9
CC1COCCN1c1cc(C2(O)CC3CCC(C2)O3)c2cnn(-c3ccn[nH]3)c2n1 (stereo not given) + COC1C(OC(N)=O)C(O)C(Oc2ccc3c(O)c(NC(=O)c4ccc(O)c(CC=C(C)C)c4)c(=O)oc3c2C)OC1(C)C | 16.4
C#Cc1c(F)ccc2cc(O)cc(-c3ncc4c(N5CC6CCC(C5)N6)nc(OCC56CCCN5CC(F)C6)nc4c3F)c12 (stereo not given) + Nc1ccc(C#CCN(C(=O)Cc2ncc(C(F)(F)F)cc2C(F)(F)F)c2ccc(F)cc2)nn1 | 118
CCc1cc2c(N3CCc4c(cc(Cn5ccnc5)cc4-c4cn(C)nc4C(F)(F)F)C3=O)cc(C)nc2c(OC)n1 + Cc1cccc(N(C)C(=O)C2C(O)CCN2c2nc(C)cc(C(F)(F)F)c2C#N)c1 | 75.6
CCc1cc2c(N3CCc4c(cc(Cn5ccnc5)cc4-c4cn(C)nc4C(F)(F)F)C3=O)ccnc2c(OC)n1 + COC1C(OC(N)=O)C(O)C(Oc2ccc3c(O)c(NC(=O)c4ccc(O)c(CC=C(C)C)c4)c(=O)oc3c2C)OC1(C)C | 104
